Taken from the RNAGym collection of RNA variant scans (doi:10.1021/acssynbio.7b00057).

B1: Pistol ribozyme (parent)
chain: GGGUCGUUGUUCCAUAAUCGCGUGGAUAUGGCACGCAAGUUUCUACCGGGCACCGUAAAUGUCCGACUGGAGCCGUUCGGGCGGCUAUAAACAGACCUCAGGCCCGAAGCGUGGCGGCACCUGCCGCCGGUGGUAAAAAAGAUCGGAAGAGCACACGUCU

- Variants of: B1
- EXPERIMENTAL PROTOCOL: aptazyme ON/OFF ratio, guanine; higher = stronger switching; co-transcriptional cleavage with and without guanine
variants and their reported aptazyme ON/OFF ratio
VALUE KIND: aptazyme ON/OFF ratio

> print(dat)
                            changes             value.kind  meas.value
 1  U7A U8G G9A U10C U11C C12U C13G  aptazyme ON/OFF ratio        1.08
 2       U7A U8G G9A U11C C12A C13U  aptazyme ON/OFF ratio        1.38
 3  U7C U8C G9A U10A U11C C12A C13G  aptazyme ON/OFF ratio        1.18
 4      U7A U8C U10G U11C C12G C13G  aptazyme ON/OFF ratio        1.17
 5           U7G G9A U10C U11G C13U  aptazyme ON/OFF ratio        1.14
 6               U7G U10C U11A C13A  aptazyme ON/OFF ratio        1.08
 7       U7C U8C G9A U11G C12A C13A  aptazyme ON/OFF ratio         1.3
 8       U7G U8A G9U U10A U11C C12U  aptazyme ON/OFF ratio        1.03
 9               G9U U10C C12U C13G  aptazyme ON/OFF ratio        1.34
10           U7G G9U U10C U11C C12A  aptazyme ON/OFF ratio        1.37
11      U7G U8A U10G U11G C12A C13A  aptazyme ON/OFF ratio        1.16
12           U7G U8A U10C U11G C13U  aptazyme ON/OFF ratio        1.41
13       U7A U8G G9A U10A U11G C12G  aptazyme ON/OFF ratio        1.26
14                   U10C U11C C13A  aptazyme ON/OFF ratio        1.02
15           U7G G9U U11G C12A C13G  aptazyme ON/OFF ratio         1.2
16       U7G U8C G9U U10A U11C C12G  aptazyme ON/OFF ratio        1.26
17       U7A U8A G9C U10G U11A C13G  aptazyme ON/OFF ratio        1.09
18      U7G U8A U10G U11G C12U C13U  aptazyme ON/OFF ratio        1.65
19  U7A U8G G9U U10G U11A C12A C13U  aptazyme ON/OFF ratio        1.48
20       U7A U8C G9C U10G U11A C12A  aptazyme ON/OFF ratio        1.26
21           U8G G9A U11C C12G C13U  aptazyme ON/OFF ratio         1.4
22                U7A U8G U11G C13A  aptazyme ON/OFF ratio        1.26
